# credit: patent US7994187B2

assay: Cytotoxicity in mock-infected MT4 CMV-EGFP cells (GFP fluorescence); type: cell-based; details: human, 50% cytotoxic concentration as negative log
Measured metric: CC50 at 3 days

Recorded results for 3 compounds are shown here.
O=c1c2ccccc2c2nc3ccc(NCCO)nn3c2n1-c1ccc(Cl)nc1 [Compound 126] = > 32.4 µM
CNc1ccc2nc3c4ccccc4c(=O)n(-c4ccc([N+](=O)[O-])cc4)c3n2n1 [Compound 114] = > 32.4 µM
CN(C)CCN(C)c1ccc2nc3c4ccccc4c(=O)n(-c4ccc([N+](=O)[O-])cc4)c3n2c1 [Compound 68] = 16.6 µM

Next item in the queue.
Entry Nc1ccc2nc3c4ccccc4c(=O)n(-c4ccc([N+](=O)[O-])cc4)c3n2n1 [Compound 129] : reported CC50 at 3 days = ?
> 32.4 µM
